Values were extracted from patent US8952024B2.

Each item that follows carries a reported Plant response rating, Goosegrass.
test system: goosegrass (Eleusine indica); assay: Test B pre-/postemergence plant response; format: in vivo; settings: Postemergence, 125 g ai/ha; visual rating after 13 to 15 days, scale 0 (no effect) to 100 (complete control)

- Smiles input: "CCCCc1ncc(C(=O)C2=C(O)CCCC2=O)c(=O)n1-c1ccccc1"
  Plant response rating, Goosegrass: 90
- Smiles input: "Cc1ccc(-n2c(-c3ccccc3)ncc(C(=O)C3=C(O)CCCC3=O)c2=O)cc1"
  Plant response rating, Goosegrass: 95
- Smiles input: "CCCn1c(-c2cccs2)ncc(C(=O)C2=C(O)CCCC2=O)c1=O"
  Plant response rating, Goosegrass: 75
- Smiles input: "CCCCc1ncc(C(=O)C2=C(O)CCCC2=O)c(=O)n1-c1ccc(C)cc1"
  Plant response rating, Goosegrass: 65
- Smiles input: "O=C1CCCC(O)=C1C(=O)c1cnc(-c2ccccc2Br)n(-c2ccccc2)c1=O"
  Plant response rating, Goosegrass: 90
